Recorded measurements of Span, one per entry
assay: Particle size distribution by laser diffraction (Malvern apparatus); type: physicochemical; conditions: [d(v,0.9)−d(v,0.1)]/d(v,0.5); micronised beclometasone dipropionate
propertyName: Span

1. CCC(=O)OCC(=O)[C@@]1(OC(=O)CC)[C@@H](C)C[C@H]2[C@@H]3CCC4=CC(=O)C=C[C@]4(C)[C@@]3(Cl)[C@@H](O)C[C@@]21C [Batch 3, beclometasone dipropionate] = 1.19
2. CCC(=O)OCC(=O)[C@@]1(OC(=O)CC)[C@@H](C)C[C@H]2[C@@H]3CCC4=CC(=O)C=C[C@]4(C)[C@@]3(Cl)[C@@H](O)C[C@@]21C [Batch 1, beclometasone dipropionate] = 1.41
3. CCC(=O)OCC(=O)[C@@]1(OC(=O)CC)[C@@H](C)C[C@H]2[C@@H]3CCC4=CC(=O)C=C[C@]4(C)[C@@]3(Cl)[C@@H](O)C[C@@]21C [Batch 2, beclometasone dipropionate] = 1.31
4. CCC(=O)OCC(=O)[C@@]1(OC(=O)CC)[C@@H](C)C[C@H]2[C@@H]3CCC4=CC(=O)C=C[C@]4(C)[C@@]3(Cl)[C@@H](O)C[C@@]21C [Batch 4, beclometasone dipropionate] = 1.54
